System: HL-60(TB) leukemia
Assay notes: NCI-60 one-dose screen, 48 h
Measurement parameters: 10 µM unless noted
This is part of a sample that, as a whole, favours compounds with a hit. Of some 83,000 tested, about 20% had one in any assay. The source made the active and inactive calls. Rule for the calls: active = growth percent below 10; inactive = the rest.
Output constraint: value belongs to true (active), false (inactive)

Reference set, count: 4
CCCn1c(O)c(N=Nc2nc(-c3cc4ccccc4oc3=O)cs2)c2cc(Br)ccc21	false
Cn1cc(-c2cc3nc(-c4cn(C)c5ncc(Br)cc45)cc(N)n3n2)c2ccccc21	true
Cn1cc(-c2nnc(N)nc2-c2c[nH]c3ccccc23)c2cccnc21	false
CSc1ccc(NC(=O)c2ccc3nnn(/C(C#N)=C/c4ccccn4)c3c2)cc1	true

API: the following record is the query input.
Hello, I am checking results. What call was entered for O=C(CSc1nnc(-c2ccc(-c3nc4ccc(Cl)cc4[nH]3)cc2)o1)Nc1ccc(Br)cc1 ?
false

These entries and their values trace back to PubChem BioAssay (NCI).
